# Test system: T. cruzi-infected H9C2 cardiomyocytes, high-content imaging
# Protocol description: intracellular T. cruzi amastigote inhibition, imaging, H9C2 host cardiomyocytes, host toxicity (AID 1159565);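 further: infected cells incubated 72 h after plating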
# Test settings: measured here: H9C2 host cell toxicity
pIC50: −log10 of the molar value.
Label rule met when pIC50 is at or above 5; otherwise label rule not met.

{"Molecule": "COc1ccc(Cl)cc1CC(=O)Nc1n[nH]c(-c2ccccn2)n1", "Assigned category": "rule not met"}
{"Molecule": "CC(=O)Nc1cccc(Nc2ncnc3nc[nH]c23)c1", "Assigned category": "rule not met"}
{"Molecule": "CCN(Cc1nc2ccc(C(=O)N3CCN(c4ncccn4)CC3)cc2[nH]1)C1CCCc2cccnc21 (stereo not drawn)", "Assigned category": "rule not met"}
{"Molecule": "Cc1c(C#N)c([N+](=O)[O-])nn1Cc1cccc(Cl)c1Cl", "Assigned category": "rule not met"}
{"Molecule": "CN(Cc1nc2ccc(C(=O)NCC3CCCCC3)cc2[nH]1)C1CCCc2cccnc21 (stereo not drawn)", "Assigned category": "rule met"}
{"Molecule": "Cn1nc(C(=O)N2CCc3ccccc32)c2c1CCS(=O)(=O)C2", "Assigned category": "rule not met"}
{"Molecule": "COc1cccc(S(=O)(=O)Nc2ccc3c(c2)CC(N2CCC(NC(=O)C4CC4)CC2)C3)c1 (stereo not drawn)", "Assigned category": "rule not met"}
{"Molecule": "O=C(Nc1ccccc1)Nc1nc(-c2ccccn2)cs1", "Assigned category": "rule met"}
{"Molecule": "O=c1ccc2ccc(F)c3c2n1C[C@H]3CN1CCC(NCc2cc3ccccc3o2)CC1", "Assigned category": "rule not met"}
{"Molecule": "CC(C)(C)Nc1nc(-c2ccccn2)nc2ccccc12", "Assigned category": "rule met"}
{"Molecule": "COc1ccc(C(=O)NC2CCN(CCn3c(=O)ccc4ncc(F)cc43)CC2)cc1Cl", "Assigned category": "rule not met"}
{"Molecule": "O=c1ccn(-c2ccc([N+](=O)[O-])cc2Cl)c2ccc(F)cc12", "Assigned category": "rule not met"}
{"Molecule": "CCc1cc(C(=O)Nc2nccn2-c2ccccc2)cs1", "Assigned category": "rule not met"}
{"Molecule": "O=C(c1cccc(Nc2ncc(-c3ccc4c(c3)OCO4)cn2)c1)N1CCSC1", "Assigned category": "rule met"}
{"Molecule": "CN(Cc1nnnn1C1CCN(Cc2ccc(-n3ccnc3)cc2)CC1)c1ccc(F)cc1F", "Assigned category": "rule not met"}
{"Molecule": "Cc1[nH]c2ccccc2c(=O)c1Cc1c(C)[nH]c2ccccc2c1=O", "Assigned category": "rule not met"}
{"Molecule": "C[C@@H](Oc1cc(-n2cnc3cc(N)ccc32)sc1C(N)=O)c1ccccc1Cl", "Assigned category": "rule met"}
{"Molecule": "Cc1ccc2sc(NC(=O)Cn3cnc([N+](=O)[O-])n3)nc2c1", "Assigned category": "rule not met"}
{"Molecule": "CCCc1cc(C(=O)Nc2ncc(-c3cccc(Br)c3)n2C)n[nH]1", "Assigned category": "rule not met"}
{"Molecule": "Cc1cc(C)nc(N2CCC(N(Cc3cccnc3)C(=O)c3cccc(C#N)c3)CC2)n1", "Assigned category": "rule not met"}
{"Molecule": "NC(=O)c1ccsc1NC(=O)c1ccc([N+](=O)[O-])s1", "Assigned category": "rule not met"}
{"Molecule": "CC(=O)NCCNc1cc(-c2ccnc(Nc3cccc(Cl)c3)n2)ccn1", "Assigned category": "rule met"}
{"Molecule": "COCc1cc(Nc2ccc(Cl)cc2)nc(-c2ccccn2)n1", "Assigned category": "rule met"}
{"Molecule": "Cc1ccc(S(C)(=O)=O)cc1Nc1nccc(-c2sc(N)nc2-c2ccccc2)n1", "Assigned category": "rule met"}
{"Molecule": "CCc1ccc2nc(NC(=O)c3cc(N4CCOCC4)ccn3)sc2c1", "Assigned category": "rule not met"}
{"Molecule": "CCCNC(=O)Nc1cccc(-c2nc3ncccc3o2)c1", "Assigned category": "rule not met"}
{"Molecule": "Nc1nccc(-c2csc(Nc3ccc(Cl)cc3)n2)n1", "Assigned category": "rule met"}
{"Molecule": "CC(C)Oc1ccc(C(=O)Nc2ccc(N3CCOCC3)c(Cl)c2)cc1", "Assigned category": "rule not met"}
{"Molecule": "CN(C(=O)Nc1ccc2c(c1)CCN(C1CCC1)CC2)c1ccc(C#N)cc1", "Assigned category": "rule not met"}
{"Molecule": "COc1ccc2ncc(F)c(CCN3CC[C@@H](NC(=O)c4cc5c(s4)CCC5)[C@@H](O)C3)c2n1", "Assigned category": "rule met"}
{"Molecule": "c1ccc(CCNCc2cncc3nc(-c4cnccn4)n(C4CCCCC4)c23)cc1", "Assigned category": "rule not met"}
{"Molecule": "O=C(Nc1ccc(Br)cn1)c1ccc(Cn2cnc([N+](=O)[O-])n2)cc1", "Assigned category": "rule not met"}
{"Molecule": "CNC(=O)C1Cc2ccccc2N1C(=O)Cc1ccc(OC)cc1 (stereo not drawn)", "Assigned category": "rule not met"}
{"Molecule": "O=c1ccc2ccc(F)c3c2n1C[C@H]3CN1CCN(CC(O)c2cc3c(cn2)OCS3)CC1 (stereo partly drawn)", "Assigned category": "rule not met"}
{"Molecule": "Cc1cccnc1NC(=O)c1cccc(OCc2c(C)noc2C)c1", "Assigned category": "rule met"}
{"Molecule": "COc1cc2c(cc1OC)[C@H]1[C@@H](C)c3ccc(OC)c(OC)c3CN1CC2", "Assigned category": "rule not met"}
{"Molecule": "O=C(Cn1cnc([N+](=O)[O-])n1)Nc1ccc(Cl)cc1C(=O)c1ccccc1", "Assigned category": "rule not met"}
{"Molecule": "Fc1ccccc1N1C[C@H]2CCN(c3cccnc3)C[C@H]2C1", "Assigned category": "rule not met"}
{"Molecule": "COc1ccc(C2CC(c3ccccc3Cl)=NN2C(=O)CNC(=O)C2CCCC2)cc1 (stereo not drawn)", "Assigned category": "rule not met"}
{"Molecule": "O=C1NCc2cccc(Nc3nc(NC4CCC(O)CC4)ncc3Br)c21 (stereo not drawn)", "Assigned category": "rule met"}

// provenance: PubChem BioAssay AID1159565
